The measured values listed here are drawn from ChEMBL document CHEMBL2439959.

Notes on Ki obtained with Carbonic anhydrase 5B, mitochondrial (Homo sapiens, UniProt Q9Y2D0).
Sequence (Q9Y2D0 whole entry): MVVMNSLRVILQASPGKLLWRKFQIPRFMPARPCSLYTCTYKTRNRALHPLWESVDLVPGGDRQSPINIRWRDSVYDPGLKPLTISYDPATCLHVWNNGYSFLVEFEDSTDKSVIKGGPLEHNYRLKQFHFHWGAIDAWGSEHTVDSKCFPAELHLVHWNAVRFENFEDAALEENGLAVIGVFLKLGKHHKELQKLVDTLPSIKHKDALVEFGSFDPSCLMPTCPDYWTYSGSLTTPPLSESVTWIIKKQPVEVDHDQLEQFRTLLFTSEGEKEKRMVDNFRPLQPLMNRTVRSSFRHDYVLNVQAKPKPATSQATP
Number only, in µM; omit the unit.

Entry NS(=O)(=O)c1ccc(NC(=O)Cc2ccccc2)cc1 ; assay system Carbonic anhydrase 5B, mitochondrial (Homo sapiens, UniProt Q9Y2D0); Ki recorded at 0.01

Reported Carbonic anhydrase 5B, mitochondrial (Homo sapiens, UniProt Q9Y2D0) Ki for item NS(=O)(=O)c1ccc(Nc2nc(Cl)nc(NCCO)n2)cc1 was 0.34
